assay: Log P by HPLC on reversed phase columns (EEC directive 79/831 Annex V.A8); type: physicochemical; conditions: method [a]: LC-UV, acidic range, 0.1% formic acid in water and acetonitrile as eluent
measurement kind: LogP

Here's what some known entries look like.
| compound | measurement kind | experimental value |
| --- | --- | --- |
| CCOC(=O)C(NC(=O)c1sc(Br)c(Br)c1C)c1ccccc1 (stereo not shown) | LogP | 4.44^[a] |
| Cc1c(C(=O)NCC(=O)OC(C)C)sc(Cl)c1Cl | LogP | 3.29^[a] |
| CCOC(=O)C1(NC(=O)c2scc(Br)c2C)CC1 | LogP | 2.49^[a] |
| CCOC(=O)CNC(=O)c1sc(Br)cc1C | LogP | 2.39^[a] |
| Cc1c(C(=O)NC(CC(C)C)C(=O)O)sc(Cl)c1Cl (stereo not shown) | LogP | 3.31^[a] |

Lookup: What value of measured LogP is listed for CCOC(=O)C(CC(C)C)NC(=O)c1sc(Br)c(Br)c1C (stereo not shown) [I.69] ?
Found: 4.66^[a]

Lookup: What value of measured LogP is listed for Cc1c(C(=O)NC(C(=O)OC2COC2)C(C)C)sc(Br)c1Br (stereo not shown) ?
Found: 3.58^[a]

Lookup: What value of measured LogP is listed for Cc1c(C(=O)NC(C(=O)OC(C)C)C(C)C)sc(Br)c1Br (stereo not shown) ?
Found: 4.77^[a]

Lookup: What value of measured LogP is listed for CCOC(=O)[C@@H](NC(=O)c1sc(Br)c(Br)c1C)C(C)C ?
Found: 4.32^[a]

====

assay: Log P by HPLC on reversed phase columns (EEC directive 79/831 Annex V.A8); format: physicochemical; details: reversed phase HPLC columns, method [a]: LC-UV, acidic range, 0.1% formic acid in water and acetonitrile as eluent
measurement kind: chromatographic logP

| compound | chromatographic logP |
| --- | --- |
| CCOC(=O)C1(NC(=O)c2scc(Br)c2C)CC1 [IXa.01] | 2.57 |

Lookup: What value of measured chromatographic logP is listed for CCOC(=O)C1(NC(=O)c2sc(N)c(Br)c2C)CC1 [Xa.01] ?
Found: 1.97

Lookup: What value of measured chromatographic logP is listed for Cc1c(C(=O)N[C@H](C(=O)O)C(C)C)sc(Br)c1Br (racemic) [I.07] ?
Found: 2.92

Lookup: What value of measured chromatographic logP is listed for CCOC(=O)CNC(=O)c1sc(Cl)c(Cl)c1Br [VIa.01] ?
Found: 3.33

Lookup: What value of measured chromatographic logP is listed for O=C(O)c1sc(Cl)c(Cl)c1Br [VIIIa.03] ?
Found: 2.52

====

assay: Log P by HPLC on reversed phase columns (EEC directive 79/831 Annex V.A8); type: physicochemical; details: reversed phase HPLC columns, value given in preparation example; method variant not stated
Response key: t means chromatographic logP >= 3; f means chromatographic logP < 3.

Worked examples follow.
| compound | class label |
| --- | --- |
| O=C(O)c1sc(Cl)c(Cl)c1Br | f |
| COC(=O)c1sc(Cl)c(Cl)c1Br | t |
| CCOC(=O)C1(NC(=O)c2sc(NC(=O)OC(C)(C)C)c(Br)c2C)CC1 | t |
| CCOC(=O)[C@@H](NC(=O)c1sc(Br)c(Br)c1C)C(C)C (racemic) | t |
| CCOC(=O)C1(NC(=O)c2sc(Br)c(Br)c2C)CC1 | t |

Lookup: Reported chromatographic logP at or above 3? CCOC(=O)CNC(=O)c1sc(Cl)c(Cl)c1Br
Found: t

Lookup: Reported chromatographic logP at or above 3? CCOC(=O)C1(NC(=O)c2sc(N)c(Br)c2C)CC1
Found: f

Lookup: Reported chromatographic logP at or above 3? COC(=O)c1sc(Cl)c(Cl)c1N
Found: t

====

LogP: recorded values
assay: Log P by HPLC on reversed phase columns (EEC directive 79/831 Annex V.A8); format: physicochemical; settings: method [a]: LC-UV, acidic range, 0.1% formic acid in water and acetonitrile as eluent

Lookup: What value of measured LogP is listed for COC(=O)CNC(=O)c1sc(Cl)c(Cl)c1I ?
Found: 2.90^[a]

Lookup: What value of measured LogP is listed for CCOC(=O)C(Cc1ccccc1)NC(=O)c1sc(Cl)c(Cl)c1Br (stereo not drawn) ?
Found: 5.01^[a]

Lookup: What value of measured LogP is listed for Cc1c(C(=O)NC(C(=O)OC2CS(=O)(=O)C2)C(C)C)sc(Br)c1Br (stereo not drawn) ?
Found: 3.42^[a]

Lookup: What value of measured LogP is listed for Cc1c(C(=O)NC(C(=O)O)C(C)C)sc(Cl)c1Cl (stereo not drawn) ?
Found: 2.96^[a]

Lookup: What value of measured LogP is listed for Cc1c(C(=O)NC(C(=O)OC(C)(C)C)C(C)C)sc(Br)c1Br (stereo not drawn) ?
Found: 5.25^[a]

Lookup: What value of measured LogP is listed for CCOC(=O)C(CC(C)C)NC(=O)c1sc(Cl)c(Cl)c1Br (stereo not drawn) ?
Found: 5.17^[a]

Lookup: What value of measured LogP is listed for CCOC(=O)C(Cc1ccccc1)NC(=O)c1sc(Br)cc1C (stereo not drawn) ?
Found: 3.90^[a]

====

LogP: recorded values
test: Log P by HPLC on reversed phase columns (EEC directive 79/831 Annex V.A8); format: physicochemical; details: method [a]: LC-UV, acidic range, 0.1% formic acid in water and acetonitrile as eluent

Lookup: What value of measured LogP is listed for CCOC(=O)C(CC(C)C)NC(=O)c1sc(Cl)c(Cl)c1C (stereo not drawn) [I.37] ?
Found: 4.51^[a]

Lookup: What value of measured LogP is listed for CCOC(=O)C(C)NC(=O)c1sc(Cl)c(Cl)c1C (stereo not drawn) [I.27] ?
Found: 3.31^[a]

Lookup: What value of measured LogP is listed for CCOC(=O)[C@H](CCSC)NC(=O)c1sc(Cl)c(Cl)c1C [I.24] ?
Found: 3.94^[a]

====

assay: Log P by HPLC on reversed phase columns (EEC directive 79/831 Annex V.A8); format: physicochemical; details: method [a]: LC-UV, acidic range, 0.1% formic acid in water and acetonitrile as eluent
measurement kind: LogP

Here's what some known entries look like.
| compound | LogP |
| --- | --- |
| CCOC(=O)C(NC(=O)c1sc(Cl)c(Cl)c1Br)C(C)C (stereo not shown) | 4.88^[a] |
| Cc1c(C(=O)NC(C(=O)Oc2ccccc2)C(C)C)sc(Br)c1Br (stereo not shown) | 4.85^[a] |
| Cc1c(C(=O)NC(C(=O)OCC#N)C(C)C)sc(Br)c1Br (stereo not shown) | 3.69^[a] |
| CSCCC(NC(=O)c1sc(Br)c(Br)c1C)C(=O)O (stereo not shown) | 2.89^[a] |
| CCOC(=O)CNC(=O)c1sc(Cl)c(Cl)c1I | 3.31^[a] |
| Cc1c(C(=O)NCC(=O)OCc2ccccc2)sc(Cl)c1Cl | 3.76^[a] |
| CCOC(=O)C1(NC(=O)c2sc(Cl)c(Cl)c2I)CC1 | 3.39^[a] |
| C=CCOC(=O)C(NC(=O)c1sc(Br)c(Br)c1C)C(C)C (stereo not shown) | 4.46^[a] |

Lookup: What value of measured LogP is listed for CCOC(=O)CNC(=O)c1sc(Br)c(Br)c1C ?
Found: 3.02^[a]

Lookup: What value of measured LogP is listed for CCOC(=O)C(CC(C)C)NC(=O)c1sc(Cl)c(Cl)c1I (stereo not shown) ?
Found: 5.08^[a]

====

assay: Log P by HPLC on reversed phase columns (EEC directive 79/831 Annex V.A8); assay type: physicochemical; details: reversed phase HPLC columns, method [a]: LC-UV, acidic range, 0.1% formic acid in water and acetonitrile as eluent
Lab note: cut-off is 3. Strictly less in chromatographic logP is condition met. Exactly 3 or more is condition not met.

Worked examples follow.
| compound | class label |
| --- | --- |
| CCOC(=O)[C@@H](NC(=O)c1sc(Br)c(Br)c1C)C(C)C (racemic) | condition not met |
| CCOC(=O)CNC(=O)c1sc(Cl)c(Cl)c1C | condition met |
| Cc1c(C(=O)O)sc(NC(=O)OC(C)(C)C)c1Br | condition met |
| CCOC(=O)C1(NC(=O)c2sc(Br)c(Br)c2C)CC1 | condition not met |

Lookup: Please let me know if COC(=O)c1sc(Cl)c(Cl)c1Br shows chromatographic logP below 3.
Found: condition not met

====

LogP: recorded values
assay: Log P by HPLC on reversed phase columns (EEC directive 79/831 Annex V.A8); assay type: physicochemical; conditions: method [a]: LC-UV, acidic range, 0.1% formic acid in water and acetonitrile as eluent

Here's what some known entries look like.
| compound | LogP |
| --- | --- |
| CCOC(=O)C(Cc1ccc(O)cc1)NC(=O)c1sc(Br)c(Br)c1C (centres unmarked) | 3.33^[a] |
| CCOC(=O)C(NC(=O)c1sc(Br)cc1C)C(C)C (centres unmarked) | 3.65^[a] |
| CCOC(=O)C(CCSC)NC(=O)c1sc(Cl)c(Cl)c1Br (centres unmarked) | 4.46^[a] |
| CCOC(=O)C(Cc1ccccc1)NC(=O)c1sc(Br)c(Br)c1I (centres unmarked) | 4.93^[a] |

Lookup: What value of measured LogP is listed for COC(=O)CNC(=O)c1sc(Cl)c(Cl)c1C ?
Found: 2.51^[a]
